Parameter cell viability: see the listing below.
- Tested on: Caco-2
- Assay: cell viability relative to DMSO; higher = less toxic
- Conditions: 72 h; 1 nM
Number in %, nothing else.

Some solved entries appear below for comparison.
# Compound, Result Units, cell viability
measured = [
    ("CC(C)c1ccc(C(=O)c2cccs2)c(SCCCCCCCCN(C)C)n1", "%", 106),
    ("CC(Cc1ccc(O)cc1)NCC(O)c1cc(O)cc(O)c1 (stereo not drawn) [fenoterol]", "%", 124),
    ("CC(=O)O[C@]1(C(C)=O)CC[C@H]2[C@@H]3CCC4=CC(=O)CCC4=C3[C@@H](c3ccc(N(C)C)cc3)C[C@@]21C [Ulipristal acetate]", "%", 94.7),
    ("C=C[C@@H]1C[C@]1(NC(=O)[C@@H]1C[C@@H](Oc2ncc(OC)c3ccc(Cl)cc23)CN1C(=O)[C@@H](NC(=O)OC(C)(C)C)C(C)(C)C)C(=O)NS(=O)(=O)C1CC1 [asunaprevir]", "%", 98.7),
]

Supply cell viability value. Item: Cc1c(O)c(=O)n(-c2ccccc2)n1C [4-hydroxy-phenazone]
98.7

Provide measured cell viability value, entry: CCn1c(=O)[nH]c2ccccc21 [1-EBIO]
94.4

Hello, please tell me recorded cell viability for this one: O=C1[O][SbH]23[O]C(=O)C([O]2)C2[O][SbH]4([O]C(=O)C([O]4)C1[O]3)[O]C2=O [antimonyl]
106

Please look at this compound and report its cell viability: COc1ccc([C@]2(C#N)CC[C@@H](C(=O)O)CC2)cc1OC1CCCC1 [cilomilast]
98.3
